fraction unbound values by entry
assay: in vitro; conditions: hMDR1 (MDR1 humanized), mouse, plasma

substance.smiles | fraction unbound
CC(=O)O[C@@]12CO[C@@H]1C[C@H](O)[C@@]1(C)C(=O)[C@H](O)C3=C(C)[C@@H](OC(=O)[C@H](O)[C@@H](NC(=O)OC(C)(C)C)c4ccccc4)C[C@@](O)([C@@H](OC(=O)c4ccccc4)[C@H]21)C3(C)C | 0.052
C[C@H]1O[C@@H](O[C@H]2[C@@H](O)C[C@H](O[C@H]3[C@@H](O)C[C@H](O[C@H]4CC[C@@]5(C)[C@H](CC[C@@H]6[C@@H]5C[C@@H](O)[C@]5(C)[C@@H](C7=CC(=O)OC7)CC[C@]65O)C4)O[C@@H]3C)O[C@@H]2C)C[C@H](O)[C@@H]1O | 0.607

Measured values drawn from paper PMC4416786 for this set.
